# system.under.test: beta-lactamase class D OXA-48 (Klebsiella pneumoniae)
# Sequence (Q6XEC0 23-265 limits assumed): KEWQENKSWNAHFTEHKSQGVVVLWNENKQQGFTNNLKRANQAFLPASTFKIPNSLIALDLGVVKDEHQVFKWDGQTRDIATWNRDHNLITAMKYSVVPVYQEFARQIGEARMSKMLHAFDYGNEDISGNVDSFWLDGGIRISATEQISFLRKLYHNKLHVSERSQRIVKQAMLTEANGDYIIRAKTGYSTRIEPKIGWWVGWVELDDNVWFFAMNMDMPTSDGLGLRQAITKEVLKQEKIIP
# Type: biochemical
# assay.setup: second drug alone in ultrafiltrated serum at 10 times recommended blood concentration; […]; average of three replicates
Numbered stars: 1 amine (or outer) side, 2 acyl side, 3 side chain; on linkers, the order of the positions; unused ones are H or OH. Bridge positions count the residues as written; N and C are the ends. Square brackets hold non-standard residues; d marks the D form. Peptide text beside a SMILES is read from it. * marks the point of attachment. pTerphenylCO(4''-OnC5H11) = CCCCCOc1ccc(-c2ccc(-c3ccc(C(=O)*)cc3)cc2)cc1; Orn(4R-OH,5R-OH) = O=C([C@H](C[C@@H](O)[C@@H](O)N[*:3])N[*:1])[*:2]; hTyr(3S-OH,4S-OH) = N[C@H](C(=O)O)[C@H](O)[C@@H](O)c1ccc(O)cc1; Pro(3S-OH,4S-Me) = C[C@H]1CN[C@H](C(=O)O)[C@H]1O; Hyp = O=C(O)[C@@H]1C[C@@H](O)CN1

[
  {
    "molecule": "CCCCCOc1ccc(-c2ccc(-c3ccc(C(=O)N[C@H]4C[C@@H](O)[C@@H](O)NC(=O)[C@@H]5[C@@H](O)[C@@H](C)CN5C(=O)[C@H]([C@@H](C)O)NC(=O)[C@H]([C@H](O)[C@@H](O)c5ccc(O)cc5)NC(=O)[C@@H]5C[C@@H](O)CN5C(=O)[C@H]([C@@H](C)O)NC4=O)cc3)cc2)cc1 [Anidulafungin] ({pTerphenylCO(4''-OnC5H11)}-[Orn(4R-OH,5R-OH)]T[Hyp][hTyr(3S-OH,4S-OH)]T[Pro(3S-OH,4S-Me)]; lactam 1-C)",
    "result.units": "mg/L",
    "Average [meropenem]": 0.10
  },
  {
    "molecule": "C=CC[C@@H]1/C=C(\\C)C[C@H](C)C[C@H](OC)[C@H]2O[C@@](O)(C(=O)C(=O)N3CCCC[C@H]3C(=O)O[C@H](/C(C)=C/[C@@H]3CC[C@@H](O)[C@H](OC)C3)[C@H](C)[C@@H](O)CC1=O)[C@H](C)C[C@@H]2OC.O",
    "result.units": "mg/L",
    "Average [meropenem]": -0.05
  },
  {
    "molecule": "O=C1NC(=O)C(c2ccccc2)(c2ccccc2)N1",
    "result.units": "mg/L",
    "Average [meropenem]": -0.08
  },
  {
    "molecule": "[Ca+2].[Cl-].[Cl-]",
    "result.units": "mg/L",
    "Average [meropenem]": -0.03
  },
  {
    "molecule": "CC[C@H](C)C[C@H](C)CCCCCCCCC(=O)N[C@H]1C[C@@H](O)[C@@H](NCCN)NC(=O)[C@@H]2[C@@H](O)CCN2C(=O)[C@H]([C@H](O)CCN)NC(=O)[C@H]([C@H](O)[C@@H](O)c2ccc(O)cc2)NC(=O)[C@@H]2C[C@@H](O)CN2C(=O)[C@H]([C@@H](C)O)NC1=O",
    "result.units": "mg/L",
    "Average [meropenem]": 0.05
  },
  {
    "molecule": "Cc1ncc2n1-c1ccc(Cl)cc1C(c1ccccc1F)=NC2",
    "result.units": "mg/L",
    "Average [meropenem]": -0.07
  },
  {
    "molecule": "CCCC(CCC)C(=O)[O-].[Na+]",
    "result.units": "mg/L",
    "Average [meropenem]": -0.09
  },
  {
    "molecule": "COc1ccnc(C[S+]([O-])c2nc3cc(OC(F)F)ccc3[nH]2)c1OC (centres unmarked)",
    "result.units": "mg/L",
    "Average [meropenem]": -0.01
  }
]
